Recorded IC50, one value per entry.
system: CHO cells; test: Cytotoxicity in CHO cells; type: cell-based, Chinese hamster; settings: Cricetulus griseus, CHO; in the presence of AG; 48 h at 37° C.; read-out: CHO IC50
Numeric only. Scale: µM

CCNCCCCNCCCCNCc1c2ccccc2cc2ccccc12 ... 9.82

// sample NCCCCNCCCCNCc1c2ccccc2cc2ccccc12 , its IC50 was 0.45

---

system: CHO cells; assay: Cytotoxicity in CHO cells; format: cell-based, Chinese hamster; details: Cricetulus griseus, CHO; 48 h incubation; new data; read-out: CHO IC50
Measure: pIC50
Friendly reminder that pIC50 comes from taking -log10 of the concentration in mol/L.

get_value(item= CCN(CCCNCCCN)Cc1c2ccccc2cc2ccccc12 , readout=pIC50) returns 5.28

---

system: L1210 cells; test: Cytotoxicity (cell growth, MTT) in L1210 cells; type: cell-based, mouse; conditions: Mus musculus, L1210; 48 h incubation; new data; read-out: L1210 IC50
Measure: pIC50
Recall that pIC50 is obtained by taking minus log10 of the concentration measured in molar.

The molecule listed as CCN(CCCNCCCN)Cc1c2ccccc2cc2ccccc12 shows pIC50 equal to 5.66

---

tested on: L1210 cells; assay: Cytotoxicity (cell growth, MTT) in L1210 cells; type: cell-based, mouse; settings: in the presence of AG; 48 h at 37° C.; read-out: L1210 IC50
Measure: IC50 (nM)
// return numeric value only (unit: nM, not printed)

Lookup result for CNCCCCNCCCCNCc1c2ccccc2cc2ccccc12 [Compound 28] ; measured IC50: 400
